target: KPC-2 (Klebsiella pneumoniae, UniProt Q9F663); construct: purchased; assay: β-lactamase inhibition, Nitrocefin hydrolysis; assay type: biochemical
Sequence (Q9F663 25-293, looked up, species assumed): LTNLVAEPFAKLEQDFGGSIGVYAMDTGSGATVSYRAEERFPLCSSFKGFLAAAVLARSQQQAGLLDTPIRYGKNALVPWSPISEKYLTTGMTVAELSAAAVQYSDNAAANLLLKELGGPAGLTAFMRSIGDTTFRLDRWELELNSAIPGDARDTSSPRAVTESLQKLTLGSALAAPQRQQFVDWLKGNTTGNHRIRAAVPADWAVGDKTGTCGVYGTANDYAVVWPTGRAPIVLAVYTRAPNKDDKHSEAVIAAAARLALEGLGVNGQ
measurement.kind: IC50 (nM)
Numeric only. Scale: nM

Prompt: I have this molecule here, O=C(NC1CC2CCC(C1)N2)[C@@H]1CC[C@@H]2CN1C(=O)N2OS(=O)(=O)O (stereo partly shown) [Compound 4] , and I need its recorded IC50.
Completion: 23.1

====

test system: Escherichia coli 7438eco-639 (NDM, ESBLs); assay: In vitro antibacterial activity on clinically separated CRE strain, agar dilution MIC; format: cell-based; conditions: Table 3, 7438eco-639 Escherichia coli
Structures can show the parent of a compound that is named as a salt.
Task for the reader: assign each of the following molecules its reported MIC.
I only need the number, in µg/mL, no unit after it.

Prompt: Find the measured MIC: item CN1CC2(CC(NC(=O)[C@@H]3CC[C@@H]4CN3C(=O)N4OS(=O)(=O)O)C2)C1 [Compound 6, hydrogen sulfate] , target or system Escherichia coli 7438eco-639 (NDM, ESBLs).
Completion: 2

Prompt: NC(=O)[C@@H]1CC[C@@H]2CN1C(=O)N2OS(=O)(=O)O [AVI sodium salt, Avibactam, reference compound] ?
Completion: 8

Prompt: Same question for O=C(NC1CC2(CNC2)C1)[C@@H]1CC[C@@H]2CN1C(=O)N2OS(=O)(=O)O please.
Completion: 2
